- test target: BTK enzyme (recombinant full-length BTK, hBTK) (Homo sapiens (Human))
- measurement notes: BTK enzymatic activity LANCE TR-FRET assay
- reported conditions: 50 pM hBTK, 25 μM ATP, 2 μM biotin-A5-peptide; compound range 1 μM to 0.017 nM; read-out: BTK binding IC50
pIC50: −log10 of the molar value.
This section presents compounds with their documented pIC50 values.

{"columns": ["compound", "pIC50"],
 "data": [
  ["CC(O)(c1ccc(-c2nc([C@@H]3CC[C@H]4CCC(=O)N4C3)n3ccnc(N)c23)cc1)c1cccc(OC(F)F)c1 (stereo partly drawn) [Example 148]", 9.70],
  ["CC(O)(c1ccc(-c2nc([C@@H]3CC[C@H]4CCC(=O)N4C3)n3ccnc(N)c23)cc1)c1cc(C(F)(F)F)ccc1F (stereo partly drawn) [Example 151]", 7.92],
  ["Nc1nccn2c([C@@H]3CC[C@H]4CCC(=O)N4C3)nc(-c3ccc(C(O)(c4cccc(C(F)(F)F)c4)C4CC4)cc3)c12 (stereo partly drawn) [Example 86]", 6.00]
]}

###

- test target: BTK enzyme (recombinant full-length BTK, hBTK) (Homo sapiens (Human), UniProt Q06187)
- Sequence (Q06187 whole entry): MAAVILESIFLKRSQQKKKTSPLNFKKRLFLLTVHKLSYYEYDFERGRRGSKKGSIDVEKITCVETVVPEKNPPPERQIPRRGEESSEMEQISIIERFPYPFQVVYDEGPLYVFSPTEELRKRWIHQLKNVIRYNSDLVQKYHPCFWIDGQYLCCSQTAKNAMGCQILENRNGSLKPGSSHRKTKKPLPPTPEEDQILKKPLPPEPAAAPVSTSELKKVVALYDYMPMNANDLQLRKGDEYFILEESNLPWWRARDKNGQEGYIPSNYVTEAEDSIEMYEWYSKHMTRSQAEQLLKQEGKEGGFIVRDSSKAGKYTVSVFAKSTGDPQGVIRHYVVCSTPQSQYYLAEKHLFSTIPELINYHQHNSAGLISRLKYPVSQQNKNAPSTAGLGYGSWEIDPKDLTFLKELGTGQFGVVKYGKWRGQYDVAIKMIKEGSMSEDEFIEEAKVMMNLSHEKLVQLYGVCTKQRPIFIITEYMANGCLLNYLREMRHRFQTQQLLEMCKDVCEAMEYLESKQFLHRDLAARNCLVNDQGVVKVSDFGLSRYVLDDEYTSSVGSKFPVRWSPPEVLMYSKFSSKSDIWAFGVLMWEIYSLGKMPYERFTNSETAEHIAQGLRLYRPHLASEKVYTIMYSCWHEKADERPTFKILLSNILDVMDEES
- measurement notes: BTK enzymatic activity LANCE TR-FRET assay
- reported conditions: 50 pM hBTK, 25 μM ATP, 2 μM biotin-A5-peptide; compound range 1 μM to 0.017 nM; read-out: BTK binding IC50
This section presents molecules with their documented IC50 values.

{"columns": ["molecule", "test target", "IC50 / nM"],
 "data": [
  ["C[C@@](O)(c1ccc(-c2nc([C@@H]3CC[C@H]4C(C(F)(F)F)CC(=O)N4C3)n3ccnc(N)c23)cc1)c1cccc(C(F)(F)F)c1 (stereo partly drawn) [Example 179]", "BTK enzyme (recombinant full-length BTK, hBTK) (Homo sapiens (Human), UniProt Q06187)", 3.5],
  ["CCOc1cc([C@](C)(O)c2cccc(C(F)(F)F)c2)cc(F)c1-c1nc([C@@H]2CC[C@H]3CCC(=O)N3C2)n2ccnc(N)c12 [Example 213]", "BTK enzyme (recombinant full-length BTK, hBTK) (Homo sapiens (Human), UniProt Q06187)", 0.63],
  ["CC(F)(F)c1cccc([C@@](C)(O)c2ccc(-c3nc([C@@H]4CC[C@H]5CCC(=O)N5C4)n4c(Cl)cnc(N)c34)cc2)c1 [Example 139]", "BTK enzyme (recombinant full-length BTK, hBTK) (Homo sapiens (Human), UniProt Q06187)", 24.9],
  ["CC(O)(c1ccc(-c2nc([C@@H]3CC[C@H]4CCC(=O)N4C3)n3ccnc(N)c23)cc1)C1CC2CCC1CC2 (stereo partly drawn) [Example 149]", "BTK enzyme (recombinant full-length BTK, hBTK) (Homo sapiens (Human), UniProt Q06187)", 888],
  ["CC(O)(c1ccc(-c2nc([C@@H]3CC[C@H]4CCC(=O)N4C3)n3ccnc(N)c23)cc1)C1CC2CCC1CC2 (stereo partly drawn) [Example 147]", "BTK enzyme (recombinant full-length BTK, hBTK) (Homo sapiens (Human), UniProt Q06187)", 26.2],
  ["NC(=O)C(O)(c1ccc(-c2nc([C@@H]3CC[C@H]4CCC(=O)N4C3)n3ccnc(N)c23)cc1)c1cccc(C(F)(F)F)c1 (stereo partly drawn) [Example 96]", "BTK enzyme (recombinant full-length BTK, hBTK) (Homo sapiens (Human), UniProt Q06187)", 576]
]}

###

- Test system: adenosine uptake into HeLa cells
- measurement notes: [3H]Adenosine uptake assay in HeLa cells
- Assay type: cell-based
- reported conditions: Homo sapiens, HeLa, [3H]adenosine accumulation in HeLa cells; compound range 10 μM to 0.032 nM; read-out: ADU inhibition IC50
Class field: derived from IC50; ranges lower range: < 1 µM; middle range: ≥ 1 µM and < 2 µM; upper range: ≥ 2 µM

{"columns": ["molecule", "cat"],
 "data": [
  ["CC1(C)CC(=O)N2C[C@H](c3nc(-c4ccc([C@@](C)(O)c5cccc(C(F)F)c5)cc4)c4c(N)nccn34)CC[C@H]21", "middle range"],
  ["C[C@@](O)(c1ccc(-c2nc([C@@H]3CC[C@H]4CCC(=O)N4C3)n3ccnc(N)c23)cc1)c1cccc(C2CCC2)c1", "middle range"],
  ["C[C@@](O)(c1ccc(-c2nc([C@@H]3CC[C@@H]4N(C3)C(=O)CC43CC3)n3ccnc(N)c23)cc1)c1cccc(C(F)F)c1", "upper range"],
  ["C[C@](O)(c1ccc(-c2nc([C@@H]3CC[C@H]4CCC(=O)N4C3)n3ccnc(N)c23)cc1)c1cccc(C(F)(F)F)c1", "upper range"],
  ["Nc1nccn2c([C@@H]3CC[C@H]4CCC(=O)N4C3)nc(-c3ccc(C(O)c4cc(C(F)(F)F)ccc4F)cc3)c12 (stereo partly shown)", "middle range"],
  ["CC(F)(F)c1cccc([C@@](C)(O)c2ccc(-c3nc([C@@H]4CC[C@H]5CCC(=O)N5C4)n4ccnc(N)c34)cc2)c1", "lower range"],
  ["CC(O)(c1ccc(-c2nc([C@@H]3CC[C@H]4CCC(=O)N4C3)n3ccnc(N)c23)cc1)c1ccccn1 (stereo partly shown)", "upper range"],
  ["CC(C)N1CC(=O)N2C[C@H](c3nc(-c4ccc([C@@](C)(O)c5cccc(C(F)(F)F)c5)cc4)c4c(N)nccn34)CC[C@H]2C1", "upper range"],
  ["C[C@](O)(c1ccc(-c2nc([C@@H]3CC[C@H]4CCC(=O)N4C3)n3ccnc(N)c23)cc1)c1cc(C(F)(F)F)ccn1", "lower range"],
  ["Nc1nccn2c([C@@H]3CC[C@H]4CCC(=O)N4C3)nc(-c3ccc([C@@](O)(CO)c4cccc(C(F)(F)F)c4)cc3)c12", "upper range"],
  ["C[C@](O)(c1cccc(C(F)(F)F)c1)c1ccc(-c2nc([C@@H]3CC[C@H]4CCC(=O)N4C3)n3ccnc(N)c23)c(CO)c1", "upper range"],
  ["C[C@](O)(c1ccc(-c2nc([C@@H]3CC[C@H]4CCC(=O)N4C3)n3ccnc(N)c23)cc1)c1cccc(C(F)(F)F)n1", "lower range"]
]}

###

This section presents compounds with their documented pIC50 values.
- test target: BTK enzyme (recombinant full-length BTK, hBTK) (Homo sapiens (Human))
- measurement notes: BTK enzymatic activity LANCE TR-FRET assay
- reported conditions: 50 pM hBTK, 25 μM ATP, 2 μM biotin-A5-peptide; compound range 1 μM to 0.017 nM; read-out: BTK binding IC50
pIC50: −log10 of the molar value.

{"columns": ["compound", "pIC50"],
 "data": [
  ["CC(O)(c1ccc(-c2nc([C@@H]3CC[C@H]4CCC(=O)N4C3)n3ccnc(N)c23)cc1)c1ccccc1C(F)(F)F (stereo partly shown)", 7.11],
  ["COc1cc(C(O)(c2cccc(C(F)(F)F)c2)C(F)(F)F)ccc1-c1nc([C@@H]2CC[C@H]3CCC(=O)N3C2)n2ccnc(N)c12 (single isomer, unassigned) [Example 10]", 6.30],
  ["CC1(C)CC(=O)N2C[C@@H](c3nc(-c4ccc([C@@](C)(O)c5cccc(C(F)(F)F)c5)cc4)c4c(N)nccn34)CC[C@@H]21 [Example 161]", 9.57],
  ["CC(C)(c1cccc([C@](C)(O)c2ccc(-c3nc([C@@H]4CC[C@H]5CCC(=O)N5C4)n4ccnc(N)c34)cc2)c1)C(F)(F)F", 9.02],
  ["CC(O)(c1cccc(C(F)F)c1)c1ccc(-c2nc([C@@H]3CC[C@H]4CCC(=O)N4C3)n3ccnc(N)c23)c(F)c1 (stereo partly shown) [Example 195]", 9.48],
  ["C[C@](O)(c1ccc(-c2nc([C@@H]3CC[C@H]4CCC(=O)N4C3)n3ccnc(N)c23)cc1)c1cccc(C(F)(F)F)n1", 6.06],
  ["CC(O)(c1cccc(C(F)(F)F)c1)c1ccc(-c2nc([C@@H]3CC[C@H]4CCC(=O)N4C3)n3ccnc(N)c23)cc1F (stereo partly shown) [Example 54]", 6.00],
  ["CC(C)c1cccc([C@@](C)(O)c2ccc(-c3nc([C@@H]4CC[C@H]5CCC(=O)N5C4)n4ccnc(N)c34)cc2)c1", 7.82],
  ["COc1ccccc1[C@](C)(O)c1ccc(-c2nc([C@@H]3CC[C@H]4CCC(=O)N4C3)n3ccnc(N)c23)cc1", 6.61],
  ["CC(C)(C)c1cccc([C@](C)(O)c2ccc(-c3nc([C@@H]4CC[C@H]5CCC(=O)N5C4)n4ccnc(N)c34)cc2)c1", 9.57],
  ["CC(O)(c1ccc(-c2nc([C@@H]3CC[C@H]4CCC(=O)N4C3)n3ccnc(N)c23)cc1)c1cccc(C2CC2(F)F)c1 (stereo partly shown) [Example 159]", 10.00],
  ["C[C@@](O)(c1cccc(C(F)(F)F)c1)c1ccc(-c2nc([C@@H]3CC[C@H]4CCC(=O)N4C3)n3ccnc(N)c23)c(F)c1", 8.80],
  ["CC(O)(c1ccccc1)c1ccc(-c2nc([C@@H]3CC[C@H]4CCC(=O)N4C3)n3ccnc(N)c23)cc1 (stereo partly shown)", 8.46],
  ["COc1cc(C(C)(O)c2cccc(C(F)(F)F)c2)ccc1-c1nc([C@@H]2CC[C@@H]3N(C2)C(=O)CC3(C)C)n2ccnc(N)c12 (stereo partly shown) [Example 209]", 7.59],
  ["C[C@](O)(c1ccc(-c2nc([C@@H]3CC[C@H]4CCC(=O)N4C3)n3ccnc(N)c23)cc1)c1cncc(C(F)(F)F)c1", 6.00],
  ["CC1(C)CC(=O)N2C[C@H](c3nc(-c4ccc([C@@](C)(O)c5cccc(C(F)F)c5)cc4)c4c(N)nccn34)CC[C@H]21", 10.00],
  ["CC(O)(c1cccc(C(F)F)c1)c1ccc(-c2nc([C@@H]3CC[C@@H]4N(C3)C(=O)CC4(C)C)n3ccnc(N)c23)c(F)c1 (stereo partly shown) [Example 200]", 7.27],
  ["CC(O)(c1cccc(C(F)(F)F)c1)c1ccc(-c2nc([C@@H]3CC[C@H]4CCC(=O)N4C3)n3ccnc(N)c23)cc1F (stereo partly shown) [Example 60]", 7.44],
  ["COc1cc(-c2nc([C@@H]3CC[C@H]4CCC(=O)N4C3)n3ccnc(N)c23)ccc1[C@@](C)(O)c1cccc(C2CC2)c1", 8.00],
  ["C[C@@](O)(c1ccc(-c2nc([C@@H]3CC[C@H]4N(C3)C(=O)CCC4(F)F)n3ccnc(N)c23)cc1)c1cccc(C(F)(F)F)c1", 6.25],
  ["CC(C)C(O)(c1ccc(-c2nc([C@@H]3CC[C@H]4CCC(=O)N4C3)n3ccnc(N)c23)cc1)c1cccc(C(F)(F)F)c1 (stereo partly shown) [Example 79]", 6.69],
  ["C[C@](O)(c1cccc(C(F)(F)F)c1)c1ccc(-c2nc([C@@H]3CC[C@H]4CCC(=O)N4C3)n3ccnc(N)c23)c(CO)c1", 6.64],
  ["C[C@](O)(c1cccc(C(F)(F)F)c1)c1ccc(-c2nc([C@@H]3CC[C@H]4CCC(=O)N4C3)n3ccnc(N)c23)c(F)c1", 6.11],
  ["CC(C)c1cccc([C@](C)(O)c2ccc(-c3nc([C@@H]4CC[C@H]5CCC(=O)N5C4)n4ccnc(N)c34)cc2)c1", 9.68],
  ["CC(F)(F)c1cccc([C@@](C)(O)c2ccc(-c3nc([C@@H]4CC[C@H]5CCC(=O)N5C4)n4ccnc(N)c34)cc2)c1", 7.19]
]}
